Values compiled from patent US9675697B2.

Target: BRD2 BD1 (Homo sapiens (Human))
Experiment: FP protein saturation experiment with probe Cpd. No. 350
Format: binding
Settings: probe 1.5 nM
Experimental: Fluorescence Polarization (FP) competitive binding studies (see above) were carried out using the FAM labeled fluorescent probe Cpd. No. 350 to determine binding affinities of representative compounds to both BD1 and BD2 of BRD2, BRD3, and BRD4 proteins. Equilibrium dissociation constants (Id) values of Cpd. […] Final Cpd. […] Kd values of Cpd.
Readout Label: Kd (nM)

Molecule: COc1cc2c(cc1-c1c(C)noc1C)[nH]c1nc(C(=O)NC3CCN(CCCNC(=O)c4ccc(-c5c6ccc(=O)cc-6oc6cc(O)ccc56)c(C(=O)O)c4)CC3)nc(-c3ccnc4ccc(F)cc34)c12 [Cpd. No. 350]
Readout Label: Kd
Uom: nM
Endpoint Value: 2

###

biological target: BRD3 BD2 (Homo sapiens (Human), UniProt Q15059); experiment: FP competitive binding assay using Cpd. No. 350 as the probe; conditions: read-out: BRD3 BD2 Ki; FP, Cpd. No. 350 probe […]
Sequence (Q15059 306-415): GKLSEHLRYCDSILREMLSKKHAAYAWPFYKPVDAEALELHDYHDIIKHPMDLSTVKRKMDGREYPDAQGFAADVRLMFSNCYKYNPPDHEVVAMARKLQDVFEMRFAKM

Smiles Data: COc1cc2c(cc1-c1c(C)noc1C)[nH]c1nc(C)nc(-c3cc(C(=O)NC4CCN(C5CCOCC5)CC4)[nH]c3C(C)C)c12
Study Target: BRD3 BD2 (Homo sapiens (Human), UniProt Q15059)
Ki [nM]: 1

Smiles Data: CCc1onc(C)c1-c1cc2[nH]c3ccnc(Cl)c3c2cc1OC
Study Target: BRD3 BD2 (Homo sapiens (Human), UniProt Q15059)
Ki [nM]: 1280

Smiles Data: COc1cc2c(cc1-c1c(C)nn(C)c1C)[nH]c1ccnc(Cl)c12
Study Target: BRD3 BD2 (Homo sapiens (Human), UniProt Q15059)
Ki [nM]: 2050

Smiles Data: COc1cc2c(cc1-c1c(C)noc1C)[nH]c1nc(C)nc(-c3ccc(C(=O)N4CCN(C)CC4)c4ccccc34)c12
Study Target: BRD3 BD2 (Homo sapiens (Human), UniProt Q15059)
Ki [nM]: 1.3

Smiles Data: COc1cc2c(cc1-c1c(C)noc1C)[nH]c1nc(C)nc(-c3ccc(C(=O)NC4CCN(C)CC4)c4ccccc34)c12
Study Target: BRD3 BD2 (Homo sapiens (Human), UniProt Q15059)
Ki [nM]: 1.4

Smiles Data: COc1cc2c(cc1-c1c(C)noc1C)[nH]c1ccnc(-c3cn[nH]c3)c12
Study Target: BRD3 BD2 (Homo sapiens (Human), UniProt Q15059)
Ki [nM]: 48.7

Smiles Data: COc1cc2c(cc1-c1c(C)noc1C)[nH]c1ccncc12
Study Target: BRD3 BD2 (Homo sapiens (Human), UniProt Q15059)
Ki [nM]: 241

Smiles Data: COc1cc2c(cc1-c1c(C)noc1C)[nH]c1nc(C)nc(-c3cccc(C(C)(C)O)c3)c12
Study Target: BRD3 BD2 (Homo sapiens (Human), UniProt Q15059)
Ki [nM]: 4.7

###

target: BRD4 BD2 (Homo sapiens (Human)); test: FP competitive binding assay using Cpd. No. 350 as the probe; conditions: read-out: BRD4 BD2 Ki; FP, Cpd. No. 350 probe […]
pKi: −log10 of the molar value.

Smiles Data: CCc1noc(CC)c1-c1cc2[nH]c3ccnc(Cl)c3c2cc1OC
pKi: 5.08
//
Smiles Data: COc1cc2c(cc1-c1c(C)noc1C)[nH]c1ccncc12
pKi: 6.08
//
Smiles Data: CCc1onc(C)c1-c1cc2[nH]c3ccnc(Cl)c3c2cc1OC
pKi: 5.66
//
Smiles Data: CCc1noc(C)c1-c1cc2[nH]c3ccnc(Cl)c3c2cc1OC
pKi: 6.32
//
Smiles Data: COc1cc2c(cc1-c1c(C)noc1C)[nH]c1nc(C)nc(-c3cccc(C(C)(C)O)c3)c12
pKi: 7.93
//
Smiles Data: COc1cc2c(cc1-c1c(C)nn(C)c1C)[nH]c1ccnc(Cl)c12
pKi: 5.71
//
Smiles Data: COc1cc2c(cc1-c1c(C)noc1C)[nH]c1ccnc(Cl)c12
pKi: 6.71
//
Smiles Data: COc1cc2c(cc1-c1c(C)noc1C)[nH]c1ccnc(-c3cn[nH]c3)c12
pKi: 6.70
//
Smiles Data: COc1cc2c(cc1-c1c(C)noc1C)[nH]c1nc(C)nc(-c3ccc(C(=O)N4CCN(C)CC4)c4ccccc34)c12
pKi: 8.39

###

molecular target: BRD3 BD1 (Homo sapiens (Human)); test: OctetRED biolayer interferometry (BLI) binding assay
pKd: −log10 of the molar value.
Readout Label: pKd

Smiles Data: COc1cc2c(cc1-c1c(C)noc1C)[nH]c1ccnc(-c3c(C)n[nH]c3C)c12
Endpoint Value: 7.75

###

molecular target: BRD2 BD1 (Homo sapiens (Human), UniProt P25440); assay: FP competitive binding assay using Cpd. No. 350 as the probe; settings: read-out: BRD2 BD1 Ki; FP, Cpd. No. 350 probe […]
Sequence (P25440 74-180): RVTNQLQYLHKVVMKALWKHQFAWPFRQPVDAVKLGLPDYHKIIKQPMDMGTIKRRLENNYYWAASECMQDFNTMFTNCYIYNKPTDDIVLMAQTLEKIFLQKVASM
pKi: −log10 of the molar value.
Each record here notes measured pKi.

Smiles Data: COc1cc2c(cc1-c1c(C)noc1C)[nH]c1nc(C)nc(-c3cccc(C(C)(C)O)c3)c12
Study Target: BRD2 BD1 (Homo sapiens (Human), UniProt P25440)
pKi: 8.28

Smiles Data: COc1cc2c(cc1-c1c(C)noc1C)[nH]c1ccnc(-c3c(C)nn(-c4ccccc4)c3C)c12
Study Target: BRD2 BD1 (Homo sapiens (Human), UniProt P25440)
pKi: 7.20

Smiles Data: COc1cc2c(cc1-c1c(C)noc1C)[nH]c1ccnc(-c3c(C)n[nH]c3C)c12
Study Target: BRD2 BD1 (Homo sapiens (Human), UniProt P25440)
pKi: 7.32

Smiles Data: COc1cc2c(cc1-c1c(C)noc1C)[nH]c1ccnc(Cl)c12
Study Target: BRD2 BD1 (Homo sapiens (Human), UniProt P25440)
pKi: 6.67

Smiles Data: COc1cc2c(cc1-c1c(C)noc1C)[nH]c1nc(C)nc(-c3c(C)[nH]c4ccccc34)c12
Study Target: BRD2 BD1 (Homo sapiens (Human), UniProt P25440)
pKi: 8.49

Smiles Data: COc1cc2c(cc1-c1c(C)noc1C)[nH]c1nc(C)nc(-c3ccc(C(=O)NC4CCN(C)CC4)c4ccccc34)c12
Study Target: BRD2 BD1 (Homo sapiens (Human), UniProt P25440)
pKi: 8.37

Smiles Data: COc1cc2c(cc1-c1c(C)noc1C)[nH]c1nc(C)nc(-c3cc(C(=O)NC4CCN(C5COC5)CC4)[nH]c3C(C)C)c12
Study Target: BRD2 BD1 (Homo sapiens (Human), UniProt P25440)
pKi: 7.98

###

target: BRD3 BD1 (Homo sapiens (Human), UniProt Q15059); experiment: FP competitive binding assay using Cpd. No. 350 as the probe; settings: read-out: BRD3 BD1 Ki; FP, Cpd. No. 350 probe […]
Sequence (Q15059 34-140): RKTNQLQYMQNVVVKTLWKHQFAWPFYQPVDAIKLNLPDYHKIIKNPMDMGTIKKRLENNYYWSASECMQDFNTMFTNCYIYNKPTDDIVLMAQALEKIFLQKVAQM
Each record here notes measured Ki.

Molecule: COc1cc2c(cc1-c1c(C)noc1C)[nH]c1nc(C)nc(-c3cc(C(=O)NC4CCN(C5COC5)CC4)[nH]c3C(C)C)c12 [Cpd. No. 213]
Ki, nM: 14

Molecule: COc1cc2c(cc1-c1c(C)nn(C)c1C)[nH]c1ccnc(Cl)c12 [RX-27]
Ki, nM: 5030

Molecule: COc1cc2c(cc1-c1c(C)noc1C)[nH]c1nc(C)nc(-c3ccnc4ccccc34)c12 [Cpd. No. 73]
Ki, nM: 10.2

Molecule: CCc1onc(C)c1-c1cc2[nH]c3ccnc(Cl)c3c2cc1OC [RX-38]
Ki, nM: 703

Molecule: COc1cc2c(cc1-c1c(C)noc1C)[nH]c1ccncc12 [RX-7]
Ki, nM: 730

Molecule: COc1cc2c(cc1-c1c(C)noc1C)[nH]c1nc(C)nc(-c3ccc(C(=O)NC4CCN(C5COC5)CC4)c4ccccc34)c12 [Cpd. No. 197]
Ki, nM: 10.5

Molecule: COc1cc2c(cc1-c1c(C)noc1C)[nH]c1nc(C)nc(-c3cc(C(=O)NC4CCN(C)CC4)[nH]c3C(C)C)c12 [Cpd. No. 211]
Ki, nM: 10.8

Molecule: COc1cc2c(cc1-c1c(C)noc1C)[nH]c1ccnc(-c3cn[nH]c3)c12
Ki, nM: 151

###

biological target: BRD4 BD2 (Homo sapiens (Human), UniProt O60885); test: FP competitive binding assay (BRD-1F probe); conditions: BRD-1F probe 5 nM, protein 200 nM
Define the label as class 1 when IC50 is strictly less than 3000 nM and as class 0 in all remaining cases.

Smiles Data: COc1cc2c(cc1-c1c(C)noc1C)[nH]c1ccnc(-c3ccccc3)c12
Qualitative Label: class 1
--
Smiles Data: COc1cc2c(cc1-c1c(C)noc1C)[nH]c1ccnc(-c3cccnc3)c12
Qualitative Label: class 1
--
Smiles Data: COc1cc2c(cc1-c1c(C)noc1C)[nH]c1ccnc(-c3cn[nH]c3)c12
Qualitative Label: class 1
--
Smiles Data: COc1cc2c(cc1-c1c(C)noc1C)[nH]c1ccncc12
Qualitative Label: class 1
--
Smiles Data: COc1cc2c(cc1-c1c(C)n[nH]c1C)[nH]c1ccnc(-c3c(C)n[nH]c3C)c12
Qualitative Label: class 0
